Attribution: ChEMBL document CHEMBL3352258

- assay.details: Protein binding in human plasma
- Assay type: ADME, cell-free
- experimental.context: read-out: PPB (converted)
recorded.metric: fraction unbound

What value of fraction unbound has been recorded for this entry: CS(=O)(=O)c1ccc(-n2cc(Cl)c(OC3CCN(c4ncc(Cl)cn4)CC3)cc2=O)c(F)c1 [BMS-903452]
0.005

* * *

- assay.details: Terminal half life in C57BL/6 mouse at 30 mg/kg, po
- Format: ADME, organism-based
- Design: dose 30 mg/kg, route oral
- experimental.context: in vivo, read-out: beta t1/2 (converted)
recorded.metric: half-life (h)
Numbers only, in h.

What value of half-life has been reported for the following compound? CCCc1cnc(N2CCC(Oc3ccn(-c4ccc(S(C)(=O)=O)cc4F)c(=O)c3)CC2)nc1
2.4

* * *

- assay.details: Volume of distribution at steady state in Sprague-Dawley rat at 1 mg/kg, iv
- Assay type: ADME, organism-based
- Parameters: dose 1 mg/kg, route intravenous
- experimental.context: in vivo, read-out: Vdss
recorded.metric: Vd (L/kg)
One number for each entry, in L/kg.

Recorded Vd for CS(=O)(=O)c1ccc(-n2cc(Cl)c(OC3CCN(c4ncc(Cl)cn4)CC3)cc2=O)c(F)c1 , please?
2.2

* * *

- assay.details: Half life in Sprague-Dawley rat at 5 mg/kg, po
- Format: ADME, organism-based
- Set-up: dose 5 mg/kg, route oral
- experimental.context: Sprague-Dawley, in vivo
recorded.metric: half-life (min)
Answers are plain numbers, in min.

structure.string: CS(=O)(=O)c1ccc(-n2cc(Cl)c(OC3CCN(c4ncc(Cl)cn4)CC3)cc2=O)cc1F
unit.symbol: min
half-life: 12

Tell me the measured half-life of CS(=O)(=O)c1ccc(-n2cc(Cl)c(OC3CCN(c4ncc(Cl)cn4)CC3)cc2=O)cc1 , please.
9

* * *

- assayed.target: Glucose-dependent insulinotropic receptor (Homo sapiens)
- Sequence (Q8TDV5 whole entry): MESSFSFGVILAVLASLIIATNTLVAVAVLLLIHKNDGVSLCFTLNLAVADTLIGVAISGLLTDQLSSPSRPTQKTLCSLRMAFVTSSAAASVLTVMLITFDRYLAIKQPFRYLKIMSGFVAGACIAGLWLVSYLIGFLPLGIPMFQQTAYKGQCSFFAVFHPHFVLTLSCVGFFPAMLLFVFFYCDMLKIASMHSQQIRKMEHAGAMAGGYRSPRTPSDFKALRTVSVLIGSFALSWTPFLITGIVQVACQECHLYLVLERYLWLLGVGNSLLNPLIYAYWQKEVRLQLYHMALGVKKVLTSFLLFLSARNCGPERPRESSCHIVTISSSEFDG
- assay.details: Agonist activity at human GPR119
pEC50: −log10 of the molar value.
Mark condition not met for pEC50 values under 7, and condition met for everything at or above.

molecule: CCCc1cnc(N2CCC(Oc3cc(=O)n(-c4ccc(S(C)(=O)=O)cc4)cc3C)CC2)nc1
classification: condition met
--
molecule: CCCc1cnc(N2CCC(Oc3ccn(-c4ccc(S(C)(=O)=O)cc4)c(=O)c3Cl)CC2)nc1
classification: condition not met
--
molecule: Cc1ccnc(N2CCC(Oc3ccn(-c4ccc(S(C)(=O)=O)cc4)c(=O)c3)CC2)n1
classification: condition not met
--
molecule: CC(C)(C)OC(=O)N1CCC(Oc2ccn(-c3ccc(S(C)(=O)=O)cc3)c(=O)c2)CC1
classification: condition not met
--
molecule: CS(=O)(=O)c1ccc(-n2cc(Cl)c(OC3CCN(c4ncc(C(F)(F)F)cn4)CC3)cc2=O)c(F)c1
classification: condition met

Does CC(C)OC(=O)N1CCCC(Oc2ccn(-c3ccc(S(C)(=O)=O)cc3)c(=O)c2)CC1 (centres undefined) have a reported pEC50 of at least 7?
condition not met

Check this molecule for pEC50 at or above 7: CC(C)OC(=O)N1CCC(COc2ccn(-c3ccc(S(C)(=O)=O)cc3)c(=O)c2)CC1
condition not met

For this molecule, is measured pEC50 7 or higher? CS(=O)(=O)c1ccc(-n2cc(Cl)c(OC3CCN(c4ncc(C(F)(F)F)cn4)CC3)cc2=O)cc1
condition met
